# test_name: Terminal elimination rate constant in cancer patient with severe renal failure administered as infusion after 0.25 to 1.5 hrs by RP-HPLC analysis
# Assay type: ADME, organism-based
# Set-up: dosed compound name Irinotecan
# condition_info: human, in vivo, iv; read-out: k_elim (converted)
experimental_readout: k el (s⁻¹)

compound: CCc1c2c(nc3ccc(O)cc13)-c1cc3c(c(=O)n1C2)COC(=O)[C@]3(O)CC [7-ETHYL-10-HYDROXYCAMPTOTHECIN]
result_value: 2.34e-06
--
compound: CCc1c2c(nc3ccc(OC(=O)N4CCC(N5CCCCC5)CC4)cc13)-c1cc3c(c(=O)n1C2)COC(=O)[C@]3(O)CC
result_value: 2.81e-05
--
compound: CCc1c2c(nc3ccc(O[C@@H]4O[C@H](C(=O)O)[C@@H](O)[C@H](O)[C@H]4O)cc13)-c1cc3c(c(=O)n1C2)COC(=O)[C@]3(O)CC
result_value: 8.61e-06
